TEST SYSTEM: wild-type BasC
MEASUREMENT NOTES: Thermostability-based L-alanine binding assay (GFP-fused protein, SEC)
Design: species or system Carnobacterium sp AT7
MEASUREMENT CONTEXT: WT BasC, incubated at Tm, L-alanine 0–200 mM; read-out: KD (apparent, thermostability-based)
READOUT TYPE: Kd (mM)
Output spec: scalar in mM, unitless text.

Task: Please give the documented Kd of `C[C@H](N)C(=O)O`
Output: 34.5
